Sourced from ChEMBL document CHEMBL1201862

Tested on: NCI-H226
assay name: NCI tumour cell line growth inhibition, 48 h
Active and inactive are the calls of the source. Rule as the data show it: active = GI50 up to about 1.1 µM and inactive = higher.
Reported GI50 values are given for each entry in this list.

As a guide, the following entries are already answered.
- compound: "Cc1cc(S(=O)(=O)Nc2nc3cccnc3[nH]2)c(S)cc1Cl"
  attribute measured: "GI50"
  value measured: "52.2 µM (inactive)"
- compound: "COc1cc(-c2cc(-c3ccccc3)nc(-c3c(OC)ccc4c(C)cc(=O)oc34)c2)cc(OC)c1OC"
  attribute measured: "GI50"
  value measured: "> 100 µM (inactive)"
- compound: "NS(=O)(=O)c1ccc(NC(=O)c2cccc3c(=O)c4ccccc4[nH]c23)cc1"
  attribute measured: "GI50"
  value measured: "23.4 µM (inactive)"
- compound: "Cc1cn(C2CC(N(O)Cc3ccccc3)C(CO)O2)c(=O)[nH]c1=O (centres undefined)"
  attribute measured: "GI50"
  value measured: "> 100 µM (inactive)"
- compound: "Nc1nc(O)c2ncn(C3OC(CO)C(O)C3O)c2n1 (centres undefined)"
  attribute measured: "GI50"
  value measured: "72.6 µM (inactive)"

query: Give NCI-H226 GI50 for "CC(C)Cc1c(C#N)c(C#N)c(N)n1Cc1ccccc1"
result: > 100 µM (inactive)

query: Give NCI-H226 GI50 for "CC(C)C(=O)OCN(C)c1nc(N(C)COC(=O)C(C)C)nc(N(C)COC(=O)C(C)C)n1"
result: 41.4 µM (inactive)

query: Give NCI-H226 GI50 for COc1cccc(C2c3cc4c(cc3OC(N3CCCCC3)C2C)OCO4)c1O (centres undefined)
result: 6.55 µM (inactive)

###

Test system: TK-10
assay name: NCI tumour cell line growth inhibition, 48 h
Active and inactive are the calls of the source. No stated cut-off is given here; in the data, active = GI50 up to about 1.1 µM and inactive = higher.
Reported GI50 values are given for each entry in this list.

As a guide, the following entries are already answered.
- compound: "Cc1cccc(C)c1NC(=O)CCC(=O)NNC(=O)c1cc(O)c2ccccc2c1"
  GI50: "70.1 µM (inactive)"
- compound: "O=S(=O)(N/N=C/c1ccc(Cl)c(Cl)c1)c1ccccc1"
  GI50: "41.7 µM (inactive)"
- compound: "CC(=O)O[C@H]1C=CC(=O)C(C)CC1C (stereo not given in full)"
  GI50: "> 100 µM (inactive)"

query: Which GI50 is listed for "Cc1cn([C@H]2[C@@H](CO)C[C@H]2O)c(=O)[nH]c1=O" ?
result: > 100 µM (inactive)

query: Which GI50 is listed for "CC1=CC(=O)c2cccc(NC3=NCCO3)c21" ?
result: > 100 µM (inactive)

###

Tested on: TK-10
assay name: NCI tumour cell line growth inhibition, 48 h
Activity calls are given as the source filed them. Cut-off read from the data, not from the text of the source: active = GI50 up to about 1.1 µM and inactive = higher.
Outcome field: choose from yes (1) (active), no (0) (inactive)

- compound: "COc1cccc(/C=N/n2c(Cc3ccccc3)n[nH]c2=O)c1"
  target entity: "TK-10"
  class: "no (0)"

query: For "Cc1cc2nc3ccccc3n2c2nc(N)ccc12" , what call appears in the results of this test?
result: no (0)

query: For "CN(C)CCCNC(=O)c1cc(NC(=O)c2cc(NS(=O)(=O)c3ccc4c(c3)C(=O)c3ccccc3C4=O)cn2C)cn1C" , what call appears in the results of this test?
result: no (0)

###

Test system: M19-MEL
assay name: NCI tumour cell line growth inhibition, 48 h
Calls of active or inactive are those of the source. Cut-off read from the data, not from the text of the source: active = GI50 up to about 1.1 µM and inactive = higher.
Outcome field: choose from active, inactive

Here are 3 compounds together with their reported answers.
- compound: "COc1cccc(N2C(=O)[C@H]3[C@H]4CC(C(C)(C)C)CC[C@H]4c4c([nH]c5ccccc45)[C@H]3C2=O)c1 (stereo not given in full)"
  class: "inactive"
- compound: "CC(=O)O[C@H]1C=CC(=O)C(C)CC1C (stereo not given in full)"
  class: "inactive"
- compound: "CC(=O)CCC1(c2ccccc2)OC(=O)C(C#N)=C1c1ccccc1 (stereo not given)"
  class: "inactive"

query: For OC(CBr)C(O)C(O)C(O)CBr (stereo not given) , what call appears in the results of this test?
result: inactive

query: For COc1ccc(CC2NCCc3c2[nH]c2ccccc32)cc1 (stereo not given) , what call appears in the results of this test?
result: inactive

query: For "c1cnc2nc3n(c2c1)CSC3" , what call appears in the results of this test?
result: inactive

query: For "O=C(O/N=C1/CCCC/C1=C\c1ccccc1)c1ccc(Cl)cc1" , what call appears in the results of this test?
result: inactive

query: For "COc1cc2c(cc1OC)-c1cc(OC)c(OC)cc1[C@H]1CN3CCC[C@@]3(O)C=C21" , what call appears in the results of this test?
result: active

query: For "CC1(C)OCN(c2ccc(N3CCOCC3)cc2)Cn2c1nc1ccccc12" , what call appears in the results of this test?
result: inactive

query: For "C/C(CCn1[nH]c(=O)ccc1=O)=N\O" , what call appears in the results of this test?
result: inactive

###

Reported GI50 values are given for each entry in this list.
Tested on: SK-OV-3
assay name: NCI tumour cell line growth inhibition, 48 h
Activity calls are given as the source filed them. No stated cut-off is given here; in the data, active = GI50 up to about 1.1 µM and inactive = higher.

As a guide, the following entries are already answered.
- compound: "COC(=O)c1c2c(cc3c1CC1(Cc4cc5c(c(C(C)=O)c4C1)CCCC5)C3)CCCC2 (stereo unspecified)"
  value measured: "> 100 µM (inactive)"
- compound: "COC(=O)c1c2c(cc3c1CC1(Cc4cc5c(c(C=O)c4C1)CCC5)C3)CCC2 (stereo unspecified)"
  value measured: "42.5 µM (inactive)"
- compound: "CC1(C)OCN(c2ccc(N3CCOCC3)cc2)Cn2c1nc1ccccc12"
  value measured: "> 100 µM (inactive)"
- compound: "CC1=C(C(=O)Nc2ccc(Cl)c(Cl)c2)C(c2ccc([N+](=O)[O-])cc2)C(C(=O)Nc2ccc(Cl)c(Cl)c2)=C(C)N1"
  value measured: "4.31 µM (inactive)"

query: Which GI50 is listed for "Cc1sc2ccccc2[n+]1CCC(=O)O" ?
result: > 100 µM (inactive)

query: Which GI50 is listed for [O-][S+]1c2ccccc2N=C(c2ccc(Cl)cc2)CC1c1cccs1 (stereo unspecified) ?
result: 28.9 µM (inactive)

###

Tested on: K562
assay name: NCI tumour cell line growth inhibition, 48 h
The source made the active and inactive calls. No stated cut-off is given here; in the data, active = GI50 up to about 1.1 µM and inactive = higher.
Outcome field: choose from class 1 = active, class 0 = inactive

Here are 3 compounds together with their reported answers.
- compound: "N#CC1CCCCOCCOCCOCCOCCOCCCCCC1=O (stereo unspecified)"
  class: "class 0"
- compound: "CC(=O)O/N=C/c1c2ccccc2cc2ccccc12"
  class: "class 0"
- compound: "O=c1[nH]nc(-c2ccccc2)n1/N=C/c1cccs1"
  class: "class 0"

query: For "CC1(C)OCN(c2ccc(N3CCOCC3)cc2)Cn2c1nc1ccccc12" , what call appears in the results of this test?
result: class 0

query: For O=C(O)CSC(CC1(c2ccc(Cl)cc2)NC(=O)CS1)c1ccc(Cl)cc1 (stereo unspecified) , what call appears in the results of this test?
result: class 0

query: For C[C@]12CCC3c4ccc(O)cc4CC[C@H]3C1CC(=O)N(CCN1CCCC1)C2=O (stereo partly specified) , what call appears in the results of this test?
result: class 0

query: For CC(=O)O[C@H]1C=CC(=O)C(C)CC1C (stereo partly specified) , what call appears in the results of this test?
result: class 0

query: For COc1ccc2c(c1)CCCN1Cc3cc(OC)c(OC)cc3CC21 (stereo unspecified) , what call appears in the results of this test?
result: class 0

query: For Cc1nn(C(=O)c2ccccc2O)c2c1C(c1ccccc1O)SC(=N)N2 (stereo unspecified) , what call appears in the results of this test?
result: class 0

###

Test system: SK-MEL-2
assay name: NCI tumour cell line growth inhibition, 48 h
Active and inactive are the calls of the source. No stated cut-off is given here; in the data, active = GI50 up to about 1.1 µM and inactive = higher. Non-standard residues stand in square brackets, D forms with d. Residues, ends and D or L forms follow the SMILES beside them. *: point of attachment. X30 = COC1=CC(=O)N(C(=O)[C@@H](O*)C(C)C)[C@H]1Cc1ccccc1; NMeL = CN[C@@H](CC(C)C)C(=O)O; Cbz = O=C(OCc1ccccc1)*
attribute measured: GI50

- compound: "COC1=CC(=O)N(C(=O)[C@@H](OC(=O)[C@@H]2CCCN2C(=O)[C@@H]2CCCN2C(=O)[C@H](CC(C)C)N(C)C(=O)[C@@H](NC(=O)[C@@H](NC(=O)OCc2ccccc2)C(C)C)C(C)C)C(C)C)[C@H]1Cc1ccccc1 (Cbz-VV[NMeL]PP-X30)"
  value measured: "9.42 µM (inactive)"
- compound: "COc1cccc2cc(C)c(C(=O)c3ccccc3)nc12"
  value measured: "> 100 µM (inactive)"
- compound: "CC(C)(C)C(=O)c1c(O)c2ccccc2c2ccccc2c1=O"
  value measured: "> 100 µM (inactive)"
- compound: "O=C1CCCSC(=O)N1Cc1ccccc1"
  value measured: "> 100 µM (inactive)"
- compound: "O=C(CCN1CCN2c3ccccc3CCC2C1)c1ccc(F)cc1 (configuration not stated)"
  value measured: "23 µM (inactive)"

query: Which GI50 is listed for "O=C1c2ccccc2C(=O)c2c1c1cc(O)ccc1n2Cc1ccc(Cl)cc1Cl" ?
result: 16 µM (inactive)

query: Which GI50 is listed for "O=C1C2CCN(CC2)C1(CO)CO" ?
result: 71.8 µM (inactive)
